- SYSTEM NAME: Dual specificity mitogen-activated protein kinase kinase 1 (Homo sapiens, UniProt Q02750)
- Sequence (Q02750 whole entry): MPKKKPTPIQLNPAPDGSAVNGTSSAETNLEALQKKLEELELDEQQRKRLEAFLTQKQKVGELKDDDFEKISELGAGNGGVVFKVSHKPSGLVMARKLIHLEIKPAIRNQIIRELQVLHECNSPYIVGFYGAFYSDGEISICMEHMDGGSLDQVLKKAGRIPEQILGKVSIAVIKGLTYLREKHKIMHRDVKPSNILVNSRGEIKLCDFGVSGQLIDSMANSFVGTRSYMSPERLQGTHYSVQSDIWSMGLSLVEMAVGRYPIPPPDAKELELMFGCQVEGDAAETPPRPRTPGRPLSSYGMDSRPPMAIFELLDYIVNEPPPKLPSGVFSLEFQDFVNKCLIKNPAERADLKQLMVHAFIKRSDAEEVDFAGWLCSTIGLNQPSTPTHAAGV
- PROTOCOL DETAILS: Inhibition of human MEK-1 by Lanthascreen TR-FRET assay
OBSERVED PROPERTY: IC50 (nM)
Answers are plain numbers, in nM.

Quick check: IC50 on Dual specificity mitogen-activated protein kinase kinase 1 (Homo sapiens, UniProt Q02750), item O=C(NOCCOCCOCCOCCNc1nc(N2CCOCC2)nc(-n2c(C(F)F)nc3ccccc32)n1)c1ccc(F)c(F)c1Nc1ccc(I)cc1F ?
124

====

I'd appreciate it if you could supply concentration at 4 h values for the items below.
- PROTOCOL DETAILS: Drug concentration in JAK2V6175 transgenic myelofibrosis C57BL/6 mouse blood at 325 mg/kg, po measured after 4 hrs by LC-MS/MS analysis
- Assay type: ADME, organism-based
- MEASUREMENT CONDITIONS: whole blood, read-out: Ct
One number for each entry, in ng/g.

O=C(NOCCOCCOCCOCCNc1nc(N2CCOCC2)nc(-n2c(C(F)F)nc3ccccc32)n1)c1ccc(F)c(F)c1Nc1ccc(I)cc1F :: 2000

From here, focus on the item given below.
Field request: concentration at 4 h | item: O=C(NOCCOCCOCCOCCN(CCO)c1nc(N2CCOCC2)nc(-n2c(C(F)F)nc3ccccc32)n1)c1ccc(F)c(F)c1Nc1ccc(I)cc1F
2000
